Value source: PubChem BioAssay AID179

- Tested on: CEM cells HIV-1 protection, formazan growth assay
- ASSAY OVERVIEW: NCI AIDS Antiviral Assay
Reported EC50 values are given for each entry in this list.
OBSERVATION TYPE: EC50

- COMPOUND: "OC(CN1CCC(c2ccccc2)CC1)c1ccc(Br)cc1 (stereo unspecified)"
  MEASURED RESULT: "> 18.2 µM"
- COMPOUND: "N#CCCN(CCC#N)c1ccc(/C=C2\\N=C(CN3C(=O)c4ccccc4C3=O)OC2=O)cc1"
  MEASURED RESULT: "> 79.4 µM"
- COMPOUND: "CSc1nnc(COc2ccc(Cl)cc2)o1"
  MEASURED RESULT: "> 263 µM"
- COMPOUND: "O=C(c1ccccc1)[C@H]1Nc2cnccc2C2c3ccccc3CC21 (stereo partly specified)"
  MEASURED RESULT: "> 30.9 µM"
- COMPOUND: "O=C(/C=C/c1ccc(O)c(O)c1)c1cc(O)cc(O)c1"
  MEASURED RESULT: "> 200 µM"
- COMPOUND: "Cc1ccc(S(=O)(=O)N2CCCSCC2)cc1"
  MEASURED RESULT: "> 182 µM"
- COMPOUND: "O=c1[nH]c(=S)[nH]c2c1sc(=S)n2-c1ccccc1"
  MEASURED RESULT: "> 89.1 µM"
- COMPOUND: "COc1ccccc1C(N)c1ccccc1 (stereo unspecified)"
  MEASURED RESULT: "> 501 µM"
- COMPOUND: "CC(C)C[C@H]1[C@@H](OCc2ccccc2)COS(=O)N1[C@H](C)c1ccccc1 (stereo partly specified)"
  MEASURED RESULT: "> 200 µM"
- COMPOUND: "COc1cc2c(cc1O)C1(Cc3ccc4c(c3C1=O)OCO4)N(C)CC2 (stereo unspecified)"
  MEASURED RESULT: "> 200 µM"
- COMPOUND: "O=C1NN=C2CCCCCC12 (stereo unspecified)"
  MEASURED RESULT: "> 589 µM"
